These entries and their values trace back to ChEMBL document CHEMBL3044761.

Target Or Test System: Chitinase A1 (Thanatephorus cucumeris (strain AG1-IB / isolate 7/3/14) (Lettucebottom rot fungus) (Rhizoctonia solani))
Sequence (M5BZV0 whole entry): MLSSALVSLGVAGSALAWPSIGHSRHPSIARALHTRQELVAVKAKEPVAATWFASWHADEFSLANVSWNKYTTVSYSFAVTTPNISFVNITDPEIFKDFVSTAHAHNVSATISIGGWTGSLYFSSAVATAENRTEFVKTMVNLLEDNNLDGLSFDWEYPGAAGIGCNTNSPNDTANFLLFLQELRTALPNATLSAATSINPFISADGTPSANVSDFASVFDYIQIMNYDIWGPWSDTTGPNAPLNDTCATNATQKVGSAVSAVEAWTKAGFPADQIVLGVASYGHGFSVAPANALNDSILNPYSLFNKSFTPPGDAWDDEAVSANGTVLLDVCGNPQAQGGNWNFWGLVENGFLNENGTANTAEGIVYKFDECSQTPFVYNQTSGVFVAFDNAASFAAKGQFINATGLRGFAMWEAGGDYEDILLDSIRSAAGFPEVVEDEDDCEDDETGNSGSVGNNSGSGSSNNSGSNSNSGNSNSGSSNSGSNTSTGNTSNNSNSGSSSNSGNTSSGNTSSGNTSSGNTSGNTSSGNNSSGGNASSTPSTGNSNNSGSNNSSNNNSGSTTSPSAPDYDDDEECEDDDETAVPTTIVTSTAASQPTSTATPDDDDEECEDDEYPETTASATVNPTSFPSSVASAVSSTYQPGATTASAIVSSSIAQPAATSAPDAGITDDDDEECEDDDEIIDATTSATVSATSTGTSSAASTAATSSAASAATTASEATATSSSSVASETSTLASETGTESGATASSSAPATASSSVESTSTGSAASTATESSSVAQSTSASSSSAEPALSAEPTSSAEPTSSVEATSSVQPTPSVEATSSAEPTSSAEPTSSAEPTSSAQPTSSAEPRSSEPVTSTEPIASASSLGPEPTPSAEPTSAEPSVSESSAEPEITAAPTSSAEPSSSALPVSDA
Procedure Details: Inhibition of Rhizoctonia solani chitinase
Particulars: read-out: I50
pIC50: −log10 of the molar value.
Metric Name: pIC50

Q: Fill in pIC50 for record OCC1=C[C@H](N[C@H]2C[C@H](CO)[C@@H](O)[C@H](O)[C@H]2O)[C@H](O)[C@@H](O)[C@@H]1O
Ans: < 3.00

====

Procedure Details: Inhibition of Rhizoctonia solani beta-glucosidase
Particulars: read-out: I50
Metric Name: IC50

Q: Please give measured IC50 of the following entry: OCC1=C[C@H](N[C@H]2C[C@H](CO)[C@@H](O)[C@H](O)[C@H]2O)[C@H](O)[C@@H](O)[C@@H]1O [VALIDOXYLAMINE A]
Ans: > 1000 µM

====

Target Or Test System: Vacuolar acid trehalase (Saccharomyces cerevisiae (strain ATCC 204508 / S288c) (Baker's yeast), UniProt P48016)
Sequence (P48016 whole entry): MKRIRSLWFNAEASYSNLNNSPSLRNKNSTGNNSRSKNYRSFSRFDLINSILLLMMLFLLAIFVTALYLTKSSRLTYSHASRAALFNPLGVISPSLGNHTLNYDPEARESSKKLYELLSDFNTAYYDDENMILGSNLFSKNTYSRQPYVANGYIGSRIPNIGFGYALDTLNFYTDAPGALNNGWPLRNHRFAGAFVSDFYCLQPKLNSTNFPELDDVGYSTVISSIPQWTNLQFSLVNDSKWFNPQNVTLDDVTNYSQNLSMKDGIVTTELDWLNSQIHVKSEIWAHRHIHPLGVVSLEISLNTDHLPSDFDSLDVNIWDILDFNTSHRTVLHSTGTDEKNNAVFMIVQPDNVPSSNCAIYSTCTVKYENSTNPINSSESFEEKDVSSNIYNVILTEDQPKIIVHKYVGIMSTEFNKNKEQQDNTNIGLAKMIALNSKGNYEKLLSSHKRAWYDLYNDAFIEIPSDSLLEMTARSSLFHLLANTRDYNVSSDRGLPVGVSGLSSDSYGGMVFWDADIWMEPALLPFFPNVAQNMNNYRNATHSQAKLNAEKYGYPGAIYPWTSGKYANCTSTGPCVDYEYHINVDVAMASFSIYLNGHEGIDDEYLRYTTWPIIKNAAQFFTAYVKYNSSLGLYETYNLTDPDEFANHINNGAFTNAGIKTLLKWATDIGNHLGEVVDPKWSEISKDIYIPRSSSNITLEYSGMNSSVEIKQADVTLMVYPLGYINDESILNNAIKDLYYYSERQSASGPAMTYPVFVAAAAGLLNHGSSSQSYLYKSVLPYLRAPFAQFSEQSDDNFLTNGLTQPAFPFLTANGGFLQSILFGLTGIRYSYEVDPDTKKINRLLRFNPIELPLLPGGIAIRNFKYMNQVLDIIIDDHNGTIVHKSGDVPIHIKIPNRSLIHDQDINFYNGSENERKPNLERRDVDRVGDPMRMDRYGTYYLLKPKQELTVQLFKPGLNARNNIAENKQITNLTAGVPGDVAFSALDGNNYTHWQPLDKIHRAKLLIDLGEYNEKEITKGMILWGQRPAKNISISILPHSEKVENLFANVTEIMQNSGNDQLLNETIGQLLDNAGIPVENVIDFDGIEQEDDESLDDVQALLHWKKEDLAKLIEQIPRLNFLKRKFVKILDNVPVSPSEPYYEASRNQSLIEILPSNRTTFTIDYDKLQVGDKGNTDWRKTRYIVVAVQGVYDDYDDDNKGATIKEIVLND
Procedure Details: Inhibition of Saccharomyces cerevisiae trehalase
Particulars: read-out: I50
Metric Name: IC50
Be sure to follow the number with its unit.

Q: Give the reported IC50 for this compound. OCC1=C[C@H](N[C@H]2C[C@H](CO)[C@@H](O)[C@H](O)[C@H]2O)[C@H](O)[C@@H](O)[C@@H]1O
Ans: 3 nM
